Entries and their Kd
# assayedTarget: nsp7;nsp8 (SARS-CoV-2;SARS-CoV-2, UniProt P0DTD1;P0DTD1 3860-3942;3943-4140, |)
# protocolDescription: EMSA
I only need the number, in µM, no unit after it.

>>> experimentalvalue("rd85 (structured_RNA) RNA: GGGAAUAUACUAAUAUUGGUUGAGUUGUCCAAGCUCUAAUUGUGUCCUUUAGCUGUACGGAUUAUAAAAGUAAUAGGGAUGUGUU")
3.7
>>> experimentalvalue("GGAUUCUCGUAACUACAUAGCACAAGUAGAUGUAGUUACUUAGGAGAAU (structured_RNA) [SL]")
5.7
>>> experimentalvalue("SLP4 (structured_RNA) RNA: GGGAUUCUCGUAACUACAUAGCACAAGUAGAUGUAGUUAACUUUAAUCUCACAGCAAUGUGAUUUUAAUAGCUUCUUAGGAGAAU")
2.4
>>> experimentalvalue("PK (structured_RNA) RNA: GGGUCUUGUGCAGAAUGAAUUCUCGUAACUACAUAGCACAAGUAGAUGUAGUUA")
5.3

--- query ---
Kd in this record for PKP4 (structured_RNA) RNA: GGGCUUGUGCAGAAUGAAUUCUCGUAACUACAUAGCACAAGUAGAUGUAGUUAACUUUAAUCUCACAGCAAUGUGAUUUUAAUAGCUUCUUAGGAGAAU : 2.6
